# system-under-test: T1, human C5a (source not stated) (human, UniProt P01031 678-751)
# T1 sequence: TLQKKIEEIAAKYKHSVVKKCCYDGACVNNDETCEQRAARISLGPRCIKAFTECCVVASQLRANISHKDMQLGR
# test-description: cell-based or functional assay

binder	ROS IC50 (nM)
Cab36 (reformatted as human IgG1) (antibody, V domains shown) VH: EMQLVESGGGLVQPGGSLRLSCAASGFTFSDYYMQWVRQAPGKGPEWVGLIRNKAVGETTEYAASVKGRFTISRDDSKNSVYLQMNSLKTEDTAVYYCVSRAGPPGLSWGQGVLVTVSS VL: DIVMTQSPLSLPVTPGEPASISCRSSQSLLASDGYNYIDWYLQKPGQSPQLLIYGGSNRASGVPDRFSGSGSGTDFTLKISRVEAEDVGVYFCLQHRALPPTFGQGTKLEIK	1.41
